Some binders, each annotated with its measured binding signal.
# subjectOfTest: T1, RBFOX1 RRM RbFoxmut (Fox-RRM*) (Homo sapiens, UniProt Q9NWB1 109-208, R118D;E147R;N151S;E152T)
# T1 sequence: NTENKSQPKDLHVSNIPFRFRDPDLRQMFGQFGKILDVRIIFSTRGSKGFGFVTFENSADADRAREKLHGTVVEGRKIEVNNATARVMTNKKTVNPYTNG
# measurementNotes: EMSA; HiTS-Eq, 1 nM pool, 10 min; buffer printed only for the single-RNA assays: 10 mM Tris pH 7.5, 150 mM NaCl, 3.4 mM EDTA, 0.001% NP-40, 30 C
# conditionInfo: tags: His6 N-terminal (pET28a); label: 5' 32P
In all, about 16,000 sequences were measured (“ka relative to ugcaugu”: median about 0.096, highest 2% from about 0.35 on). The entries come from a sample that favours the highest values as a whole.

Solved cases below.
[[record]]
binder = "UAGUAAA (DNA:RNA) RNA: GGGAGACCGGAAUUCAGAUUGUCCUAGUAAAUUAAAUCCCGUCGUAGCCACCA DNA 1: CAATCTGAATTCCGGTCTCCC DNA 2: TGGTGGCTACGACGGGATT"
observedresult = "0.117 KA relative to UGCAUGU"

[[record]]
binder = "UAGUAUC (DNA:RNA) RNA: GGGAGACCGGAAUUCAGAUUGUCCUAGUAUCUUAAAUCCCGUCGUAGCCACCA DNA 1: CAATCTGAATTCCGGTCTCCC DNA 2: TGGTGGCTACGACGGGATT"
observedresult = "0.183 KA relative to UGCAUGU"

[[record]]
binder = "GGGUAGA (DNA:RNA) RNA: GGGAGACCGGAAUUCAGAUUGUCCGGGUAGAUUAAAUCCCGUCGUAGCCACCA DNA 1: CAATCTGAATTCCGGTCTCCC DNA 2: TGGTGGCTACGACGGGATT"
observedresult = "0.134 KA relative to UGCAUGU"


Now consider the entry below.
Reported binding signal, binder GCGCGAA (DNA:RNA) RNA: GGGAGACCGGAAUUCAGAUUGUCCGCGCGAAUUAAAUCCCGUCGUAGCCACCA DNA 1: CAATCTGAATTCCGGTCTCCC DNA 2: TGGTGGCTACGACGGGATT : ____
0.104 KA relative to UGCAUGU
